The reported measurements were obtained from paper PMC12257544.

Measured λem values are reported for all entries that follow.
measurement-protocol: Photophysical characterization (absorption, emission, QY, lifetime)
Assay type: physicochemical
assay-setup: in ACN
measured-endpoint: λem (nm)

chem-smiles | quantity-unit | readout-number
COc1nn2ccccc2c1-c1ccc2ccccc2n1 | nm | 422
COc1nn2ccccc2c1/C=C/c1ccc(SC)cc1 | nm | 510
COc1nn2ccccc2c1-c1ccc2ncccc2c1 | nm | 460
COc1nn2ccccc2c1-c1ccc2ccccc2c1 | nm | 465
COc1nn2c(N(C)C)cccc2c1-c1ccc2ncccc2c1 | nm | 552
COc1nn2ccccc2c1/C=C/c1ccccc1 | nm | 500
COc1nn2ccccc2c1/C=C/c1ccc([N+](=O)[O-])cc1 | nm | 662
COc1nn2ccccc2c1/C=C/c1ccc(S(C)(=O)=O)cc1 | nm | 470
CCOC(=O)c1c(OCc2ccccc2)nn2ccccc12 | nm | 380

---

measurement-protocol: Cytotoxicity assay (CellTiter-Glo)
Format: cell-based, human
assay-setup: human, HCT-8 cells (uninfected), uninfected HCT-8 cells

compound | quantity-unit | CC50 at 72 h
Oc1nn2ccccc2c1/C=C/c1c(F)c(F)c(-c2ccccc2)c(F)c1F [Compound 11a] | µM | 301

---

System: hCoV-OC43
measurement-protocol: Antiviral focus-forming reduction assay (FFRA) in HCT-8 cells
Format: cell-based, human coronavirus OC43
assay-setup: Betacoronavirus 1, OC43, HCT-8, 72 h, read-out: EC50, concentration inhibiting 50% of virus replication, hCoV-OC43, FFRA in HCT-8 cells, 72 h p.i., full treatment

compound | assayed-target | EC50, µM
Oc1nn2ccccc2c1/C=C/c1c(F)c(F)c(-c2ccccc2)c(F)c1F [Compound 11a] | hCoV-OC43 | 2.3

---

measurement-protocol: Photophysical characterization (absorption, emission, QY, lifetime)
Assay type: physicochemical
assay-setup: in ACN
I would appreciate it if you labelled entries Condition met when Stokes shift is 7000 cm^–1 or higher, otherwise Condition not met.

molecule | label-value
COc1nn2c(N(C)C)cccc2c1-c1ccc2ncccc2c1 [Compound 9b] | Condition met
COc1nn2ccccc2c1NC(C)=O [Compound 3a] | Condition met
CCOC(=O)c1c(O)nn2ccccc12 [Compound 2] | Condition not met
COc1nn2ccccc2c1NS(C)(=O)=O [Compound 3b] | Condition met
COc1nn2ccccc2c1/C=C/c1ccccc1 [Compound 5a] | Condition met
Oc1cc2ccccn2n1 [Compound 1, Pyrazolo[1,5-a]pyridin-2-ol] | Condition met
COc1nn2ccccc2c1/C=C/c1ccc(C#N)cc1 [Compound 5d] | Condition not met
Oc1nn2ccccc2c1-c1ccc2cc(-c3ccccc3)cnc2c1 [Compound 13] | Condition not met
CCOC(=O)c1c(OCc2ccccc2)nn2ccccc12 [Compound 2c] | Condition not met
Oc1nn2ccccc2c1/C=C/c1c(F)c(F)c(-c2ccccc2)c(F)c1F [Compound 11a] | Condition not met
COc1nn2ccccc2c1/C=C/c1ccc(SC)cc1 [Compound 5b] | Condition met
COc1nn2ccccc2c1-c1ccc2ccccc2c1 [Compound 6] | Condition met

---

measurement-protocol: Photophysical characterization (absorption, emission, QY, lifetime)
Assay type: physicochemical
assay-setup: in ACN
Measured λem values are reported for all entries that follow.
measured-endpoint: λem (nm)

compound | readout-number
CCOC(=O)c1c(=O)n(Cc2ccccc2)n2ccccc12 [Compound 2d] | 448
Cn1c(=O)cc2ccccn21 [Compound 1b, 1-Methylpyrazolo[1,5-a]pyridin-2(1H)-one] | 465
COc1nn2ccccc2c1/C=C/c1ccc(C#N)cc1 [Compound 5d] | 470
Oc1nn2ccccc2c1-c1ccc2cc(-c3ccccc3)ccc2n1 [Compound 12] | 430
CCOC(=O)c1c(O)nn2c(N(C)C)cccc12 [Compound 8a] | 411
CCOC(=O)c1c(OC)nn2ccccc12 [Compound 2a] | 380
COc1nn2ccccc2c1NS(C)(=O)=O [Compound 3b] | 468
Oc1nn2ccccc2c1-c1ccc2cc(-c3ccccc3)cnc2c1 [Compound 13] | 460

---

measurement-protocol: Photophysical characterization (absorption, emission, QY, lifetime)
Format: physicochemical
assay-setup: in ACN
Measured QY (luminescence quantum yield) values are reported for all entries that follow.
measured-endpoint: QY (luminescence quantum yield)

compound | result
CCOC(=O)c1c(O)nn2c(N(C)C)cccc12 | 0.06
CCOC(=O)c1c(O)nn2ccccc12 | 0.42
CCOC(=O)c1c(=O)n(C)n2ccccc12 | 0.26
COc1nn2ccccc2c1/C=C/c1ccc(C#N)cc1 | <0.01
CCOC(=O)c1c(OCc2ccccc2)nn2ccccc12 | 0.43
CCOC(=O)c1c(OC)nn2ccccc12 | 0.45
COc1nn2ccccc2c1/C=C/c1ccc([N+](=O)[O-])cc1 | <0.01
Oc1cc2ccccn2n1 [Compound 1, Pyrazolo[1,5-a]pyridin-2-ol] | 0.21
COc1nn2ccccc2c1-c1ccc2cccnc2c1 | 0.42
Oc1nn2ccccc2c1-c1ccc2cc(-c3ccccc3)ccc2n1 | <0.01

---

Measured λabs values are reported for all entries that follow.
measurement-protocol: Photophysical characterization (absorption, emission, QY, lifetime)
Format: physicochemical
assay-setup: in ACN
measured-endpoint: λabs (nm)

compound | quantity-unit | readout-number
COc1nn2ccccc2c1/C=C/c1ccc(S(C)(=O)=O)cc1 | nm | 370
COc1nn2ccccc2c1C=C(C#N)C#N | nm | 393
COc1nn2c(N(C)C)cccc2c1-c1ccc2ncccc2c1 | nm | 362
COc1nn2ccccc2c1-c1ccc2ccccc2c1 | nm | 345
CCOC(=O)c1c(O)nn2ccccc12 | nm | 313
COc1nn2ccccc2c1-c1ccc2cccnc2c1 | nm | 356
COc1nn2ccccc2c1/C=C/c1ccc(C#N)cc1 | nm | 378
Oc1nn2ccccc2c1-c1ccc2cc(-c3ccccc3)ccc2n1 | nm | 390
Oc1nn2ccccc2c1/C=C/c1c(F)c(F)c(-c2ccccc2)c(F)c1F [Compound 11a] | nm | 442
COc1nn2ccccc2c1NC(C)=O | nm | 312

---

System: HCT-8 cells
measurement-protocol: Cytotoxicity assay (CellTiter-Glo)
Assay type: cell-based, human
assay-setup: uninfected HCT-8 cells, 72 h

molecule | CC50
Oc1nn2ccccc2c1/C=C/c1c(F)c(F)c(-c2ccccc2)c(F)c1F [Compound 11a] | 301 µM

---

measurement-protocol: Photophysical characterization (absorption, emission, QY, lifetime)
Assay type: physicochemical
assay-setup: in ACN

compound | QY (luminescence quantum yield)
COc1nn2c(Cl)cccc2c1-c1ccc2ncccc2c1 [Compound 9a] | <0.01
Oc1nn2ccccc2c1/C=C/c1c(F)c(F)c(-c2ccccc2)c(F)c1F [Compound 11a] | 0.12
COc1nn2ccccc2c1-c1ccc2ncccc2c1 [Compound 7c] | 0.24
COc1nn2ccccc2c1-c1ccc2ccccc2c1 [Compound 6] | 0.13
COc1nn2ccccc2c1-c1ccc2ccccc2n1 [Compound 7a] | 0.52
Oc1nn2ccccc2c1-c1ccc2cc(-c3ccccc3)cnc2c1 [Compound 13] | 0.74
COc1nn2c(N(C)C)cccc2c1-c1ccc2ncccc2c1 [Compound 9b] | 0.10
COc1nn2ccccc2c1NC(C)=O [Compound 3a] | <0.01
COc1nn2ccccc2c1/C=C/c1ccccc1 [Compound 5a] | <0.01
Oc1nn2ccccc2c1/C=C/c1cc(F)c(-c2ccccc2)c(F)c1F [Compound 11b] | 0.08
COc1nn2ccccc2c1/C=C/c1ccc(SC)cc1 [Compound 5b] | <0.01
CCOC(=O)c1c(=O)n(Cc2ccccc2)n2ccccc12 [Compound 2d] | 0.30
COc1nn2ccccc2c1NS(C)(=O)=O [Compound 3b] | <0.01
COc1nn2ccccc2c1/C=C/c1ccc(S(C)(=O)=O)cc1 [Compound 5c] | <0.01

---

measurement-protocol: Photophysical characterization (absorption, emission, QY, lifetime)
Format: physicochemical
assay-setup: in ACN

molecule | quantity-unit | λabs
COc1nn2c(Cl)cccc2c1-c1ccc2ncccc2c1 | nm | 350
Oc1nn2ccccc2c1-c1ccc2cc(-c3ccccc3)cnc2c1 | nm | 370
COc1nn2ccccc2c1/C=C/c1ccc(SC)cc1 | nm | 350
CCOC(=O)c1c(=O)n(C)n2ccccc12 | nm | 345
CCOC(=O)c1c(OCc2ccccc2)nn2ccccc12 | nm | 310
COC(=O)/C(C#N)=C/c1c(OC)nn2ccccc12 | nm | 395
COc1nn2ccccc2c1NS(C)(=O)=O | nm | 315
COc1nn2ccccc2c1/C=C/c1ccccc1 | nm | 335
COc1nn2ccccc2c1/C=C/c1ccc([N+](=O)[O-])cc1 | nm | 426
COc1nn2ccccc2c1-c1ccc2ccccc2n1 | nm | 370
COc1cc2ccccn2n1 [Compound 1a, 2-Methoxypyrazolo[1,5-a]pyridine] | nm | 305
CCOC(=O)c1c(O)nn2c(N(C)C)cccc12 | nm | 338
Oc1cc2ccccn2n1 [Compound 1, Pyrazolo[1,5-a]pyridin-2-ol] | nm | 310
CCOC(=O)c1c(=O)n(Cc2ccccc2)n2ccccc12 | nm | 348
O=[N+]([O-])c1c(O)nn2ccccc12 [Compound 3, 3-Nitropyrazolo[1,5-a]pyridin-2-ol] | nm | 361
COc1nn2ccccc2c1-c1ccc2ncccc2c1 | nm | 350
Oc1nn2ccccc2c1/C=C/c1cc(F)c(-c2ccccc2)c(F)c1F [Compound 11b] | nm | 450
Cn1c(=O)cc2ccccn21 [Compound 1b, 1-Methylpyrazolo[1,5-a]pyridin-2(1H)-one] | nm | 335
CCOC(=O)c1c(OC)nn2ccccc12 | nm | 310
